System: CAKI-1
Assay: Growth inhibition of human Caki1 cells
Format: functional
Reported GI50 values are given for each entry in this list.
property name: GI50

| structure | observed |
| --- | --- |
| O=C(/C=C/c1cccc(O)c1)c1cccc(-n2cc(-c3ccc(Cl)cc3)[nH]c2=O)c1 | 1.72 µM |
| COc1cc(/C=C/C(=O)c2cccc(-n3cc(-c4cc(OC)c(OC)c(OC)c4)[nH]c3=O)c2)cc(OC)c1OC | 2.89 µM |
| COc1cc(/C=C/C(=O)c2cccc(-n3cc(-c4ccc(Cl)cc4)[nH]c3=O)c2)ccc1O | 2.64 µM |
| COc1ccc(-c2cn(-c3cccc(C(=O)/C=C/c4ccc(O)c(OC)c4)c3)c(=O)[nH]2)cc1 | 4.99 µM |
| O=C(/C=C/c1cccc(O)c1)c1cccc(-n2cc(-c3ccccc3)[nH]c2=O)c1 | 13.3 µM |
| COc1cc(/C=C/C(=O)c2cccc(-n3cc(-c4ccccc4)[nH]c3=O)c2)cc(OC)c1OC | 1.75 µM |
| COc1cc(/C=C/C(=O)c2cccc(-n3cc(-c4ccccc4)[nH]c3=O)c2)ccc1O | 2.19 µM |
| COc1ccc(-c2cn(-c3cccc(C(=O)/C=C/c4cc(OC)c(OC)c(OC)c4)c3)c(=O)[nH]2)cc1 | 3.05 µM |

---

Test system: MCF7
Assay: Cell cycle arrest in human MCF7 cells assessed as accumulation at G0 phase at 10 uM after 24 hrs by FACS analysis
Format: functional
Doc: threshold 3% (exclusive). Items with Activity beneath it return Y; others return N.

| compound | group label |
| --- | --- |
| O=C(/C=C/c1cccc(O)c1)c1cccc(-n2cc(-c3ccccc3)[nH]c2=O)c1 | Y |
| COc1ccc(/C=C\c2cc(OC)c(OC)c(OC)c2)cc1O [COMBRETASTATIN A4] | N |
| COc1cc(/C=C/C(=O)c2cccc(N)c2)cc(OC)c1OC | Y |
| COc1ccc(-c2cn(-c3cccc(C(=O)/C=C/c4ccc(O)c(OC)c4)c3)c(=O)[nH]2)cc1 | Y |
| COc1ccc(-c2cn(-c3cccc(C(=O)/C=C/c4cc(OC)c(OC)c(OC)c4)c3)c(=O)[nH]2)cc1 | N |

---

System: SK-OV-3
Experiment: Growth inhibition of human SKOV3 cells
Type: functional
property name: GI50

| structure | observed |
| --- | --- |
| O=C(/C=C/c1cccc(O)c1)c1cccc(-n2cc(-c3ccccc3)[nH]c2=O)c1 | 11.1 µM |
| COc1cc(/C=C/C(=O)c2cccc(-n3cc(-c4ccccc4)[nH]c3=O)c2)cc(OC)c1OC | 3.27 µM |
| COc1cc(/C=C/C(=O)c2cccc(-n3cc(-c4ccc(Cl)cc4)[nH]c3=O)c2)ccc1O | 3.19 µM |
| COc1ccc(-c2cn(-c3cccc(C(=O)/C=C/c4cc(OC)c(OC)c(OC)c4)c3)c(=O)[nH]2)cc1 | 4.6 µM |
| COc1cc(/C=C/C(=O)c2cccc(-n3cc(-c4ccc(Cl)cc4)[nH]c3=O)c2)cc(OC)c1OC | 31.4 µM |
| COc1ccc(-c2cn(-c3cccc(C(=O)/C=C/c4ccc(O)c(OC)c4)c3)c(=O)[nH]2)cc1 | 4.77 µM |
| O=C(/C=C/c1cccc(O)c1)c1cccc(-n2cc(-c3ccc(Cl)cc3)[nH]c2=O)c1 | 4.21 µM |
| COc1cc(/C=C/C(=O)c2cccc(-n3cc(-c4cc(OC)c(OC)c(OC)c4)[nH]c3=O)c2)cc(OC)c1OC | 5.12 µM |
| COc1cc(/C=C/C(=O)c2cccc(-n3cc(-c4ccccc4)[nH]c3=O)c2)ccc1O | 3.76 µM |
